B1: ESRRG (parent)
chain: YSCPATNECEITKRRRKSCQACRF

Variants of: B1
Assay: protein stability index of a GFP-peptide fusion (GPS, HEK-293T) (PSI 1-6); higher = more stable;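 note: lentivirally expressed fusions sorted by FACS into six bins by GFP to DsRed ratio, PSI derived from sequencing read proportions per bin multiplied by bin number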
Conditions: c terminus: a fixed tail appended
QUANTITY NAME: protein stability index

{"MACROMOLECULE SEQUENCE": "YSCPATNECEITKRRRKSCQACRG [F24G]", "QUANTITY NAME": "protein stability index", "TEST VALUE": 4.18}

Can you give me protein stability index for all of these, one by one?
1. YSCPNTNECEITKRRRKSCQACRF [A5N]
2. YSCPATNECEITKQRRKSCQACRF [R14Q]
3. YSCPATNECEWTKRRRKSCQACRF [I11W]
4. YSCPATNECFITKRRRKSCQACRF [E10F]
5. YSCPATNECEITKRRRKACQACRF [S18A]
6. YSCPATNECTITKRRRKSCQACRF [E10T]
7. YSCPATNECEITKRRKKSCQACRF [R16K]
8. YSCPATNECEDTKRRRKSCQACRF [I11D]

Result:
1. 3.27
2. 3.48
3. 3.44
4. 2.53
5. 3.58
6. 3.27
7. 3.62
8. 3.41

Can you give me protein stability index for all of these, one by one?
1. YSKPATNECEITKRRRKSCQACRF [C3K]
2. YSCPATNECEITKRRRKHCQACRF [S18H]
3. YSCPATYECEITKRRRKSCQACRF [N7Y]

Result:
[3.83, 3.48, 2.06]

Can you give me protein stability index for all of these, one by one?
1. YSCPATNECEITKRRRKSCQATRF [C22T]
2. YSCPATNECEITKRRRKSCQRCRF [A21R]
3. YSCPATNECEITKRLRKSCQACRF [R15L]
4. YSCLATNECEITKRRRKSCQACRF [P4L]
5. FSCPATNECEITKRRRKSCQACRF [Y1F]
6. YSCPATNECEITGRRRKSCQACRF [K13G]
7. YSCPATNECEITKRRRKSCFACRF [Q20F]

Result:
3.58
3.49
2.79
2.64
3.36
3.16
1.91

Can you give me protein stability index for all of these, one by one?
1. YSCPHTNECEITKRRRKSCQACRF [A5H]
2. YSCPATNNCEITKRRRKSCQACRF [E8N]
3. YSCPATNECEITKKRRKSCQACRF [R14K]
4. YSCPATNECEFTKRRRKSCQACRF [I11F]
5. YSCPATNECEITKRRRGSCQACRF [K17G]
6. YSCPATNEIEITKRRRKSCQACRF [C9I]

Result:
3.73
3.29
3.52
3.26
3.51
3.48
